experiment: Toxicity in Artemia salina assessed as mortality rate at 5 ug/ml measured after 24 hrs relative to control; format: organism-based; conditions: in vivo, at 5 µg/mL
readout_kind: mortality at 24 h, 5 ug/ml (%)
Output spec: scalar in %, unitless text.

mortality at 24 h, 5 ug/ml reading for `COc1ccc(/C=C/C(=O)c2c(O)cc(O[C@@H]3O[C@H](CO[C@@H]4O[C@@H](C)[C@H](O)[C@@H](O)[C@H]4O)[C@@H](O)[C@H](O)[C@H]3O)cc2OC)cc1O` : 0

---

assay: Toxicity in Artemia salina assessed as mortality rate at 25 ug/ml measured after 24 hrs relative to control; format: organism-based; settings: in vivo, at 25 µg/mL
readout_kind: mortality at 24 h, 25 ug/ml (%)
Output spec: scalar in %, unitless text.

mortality at 24 h, 25 ug/ml reading for `COc1ccc(/C=C/C(=O)c2c(O)cc(O[C@@H]3O[C@H](CO[C@@H]4O[C@@H](C)[C@H](O)[C@@H](O)[C@H]4O)[C@@H](O)[C@H](O)[C@H]3O)cc2OC)cc1O` : 0
